- System: Pseudomonas aeruginosa
- Protocol Text: Antibacterial activity against penicillin-susceptible Pseudomonas aeruginosa ATCC 27853 after 24 h by NCCLS broth microdilution method
- Format: functional
- Experimental Context: ATCC 27853, 24 h
Give measured MIC for each item. Keep answers brief.

Q: # input compound: CC[C@H]1OC(=O)[C@H](C)C(=O)[C@H](C)[C@@H](O[C@@H]2O[C@H](C)C[C@H](N(C)C)[C@H]2O)[C@](C)(OC)C[C@@H](C)C(=O)[C@H](C)[C@@H](OC(=O)NCCNC(=O)/C=C/c2ccc(C)cc2)[C@]1(C)O ; wanted: its MIC
Ans: > 128 µg/mL

Q: # query: MIC of entry CC[C@H]1OC(=O)[C@H](C)C(=O)[C@H](C)[C@@H](O[C@@H]2O[C@H](C)C[C@H](N(C)C)[C@H]2O)[C@](C)(OC)C[C@@H](C)C(=O)[C@H](C)[C@@H](OC(=O)NCCNC(=O)c2ccc(Br)cc2)[C@]1(C)O
Ans: 128 µg/mL

====

- Tested on: Streptococcus pyogenes
- Protocol Text: Antibacterial activity against erythromycin-susceptible Streptococcus pyogenes after 24 h by NCCLS broth microdilution method
- Format: functional
What MIC was measured for each of the following?
Entry rule: numbers only, all in µg/mL.

Q: Which value of MIC has been reported for CC[C@H]1OC(=O)[C@H](C)C(=O)[C@H](C)[C@@H](O[C@@H]2O[C@H](C)C[C@H](N(C)C)[C@H]2O)[C@](C)(OC)C[C@@H](C)C(=O)[C@H](C)[C@@H](OC(=O)NCCNC(=O)c2ccc(F)cc2)[C@]1(C)O in the records?
Ans: 2

Q: Look up MIC: CC[C@H]1OC(=O)[C@H](C)C(=O)[C@H](C)[C@@H](O[C@@H]2O[C@H](C)C[C@H](N(C)C)[C@H]2O)[C@](C)(OC)C[C@@H](C)C(=O)[C@H](C)[C@@H](OC(=O)NCCNC(=O)/C=C/c2cccc3ccccc23)[C@]1(C)O
Ans: 1

Q: // MIC lookup, key: CC[C@H]1OC(=O)[C@H](C)C(=O)[C@H](C)[C@@H](O[C@@H]2O[C@H](C)C[C@H](N(C)C)[C@H]2O)[C@](C)(OC)C[C@@H](C)C(=O)[C@H](C)[C@@H](OC(=O)NCCNC(=O)c2ccccc2)[C@]1(C)O
Ans: 4

Q: What MIC value was documented for this compound, CC[C@H]1OC(=O)[C@H](C)C(=O)[C@H](C)[C@@H](O[C@@H]2O[C@H](C)C[C@H](N(C)C)[C@H]2O)[C@](C)(OC)C[C@@H](C)C(=O)[C@H](C)[C@@H](OC(=O)NCCNC(=O)/C=C/c2ccc([N+](=O)[O-])cc2)[C@]1(C)O ?
Ans: 1

Q: What MIC value was documented for this compound, CC[C@H]1OC(=O)[C@H](C)C(=O)[C@H](C)[C@@H](O[C@@H]2O[C@H](C)C[C@H](N(C)C)[C@H]2O)[C@](C)(OC)C[C@@H](C)C(=O)[C@H](C)[C@@H](OC(=O)NCCNC(=O)c2ccccc2O)[C@]1(C)O ?
Ans: 4

Q: # query: MIC of entry CC[C@H]1OC(=O)[C@H](C)C(=O)[C@H](C)[C@@H](O[C@@H]2O[C@H](C)C[C@H](N(C)C)[C@H]2O)[C@](C)(OC)C[C@@H](C)C(=O)[C@H](C)[C@@H](OC(=O)NCCNC(=O)/C=C/c2ccccc2)[C@]1(C)O
Ans: 4

Q: # input compound: CC[C@H]1OC(=O)[C@H](C)C(=O)[C@H](C)[C@@H](O[C@@H]2O[C@H](C)C[C@H](N(C)C)[C@H]2O)[C@](C)(OC)C[C@@H](C)C(=O)[C@H](C)[C@@H](OC(=O)NCCNC(=O)/C=C/c2ccc(Cl)cc2)[C@]1(C)O ; wanted: its MIC
Ans: 2

Q: Would you kindly share the measured MIC for CC[C@H]1OC(=O)[C@H](C)C(=O)[C@H](C)[C@@H](O[C@@H]2O[C@H](C)C[C@H](N(C)C)[C@H]2O)[C@](C)(OC)C[C@@H](C)C(=O)[C@H](C)[C@@H](OC(=O)NCCNC(=O)/C=C/c2ccc(Br)cc2)[C@]1(C)O ?
Ans: 2

Q: I am curious: what MIC value has been reported for CC[C@H]1OC(=O)[C@H](C)C(=O)[C@H](C)[C@@H](O[C@@H]2O[C@H](C)C[C@H](N(C)C)[C@H]2O)[C@](C)(OC)C[C@@H](C)C(=O)[C@H](C)[C@@H](OC(=O)NCCNC(=O)/C=C/c2ccc(Cl)cc2Cl)[C@]1(C)O ?
Ans: 2

Q: Record request: MIC value, item CC[C@H]1OC(=O)[C@H](C)C(=O)[C@H](C)[C@@H](O[C@@H]2O[C@H](C)C[C@H](N(C)C)[C@H]2O)[C@](C)(OC)C[C@@H](C)C(=O)[C@H](C)[C@@H](OC(=O)NCCNC(=O)c2cccc(O)c2)[C@]1(C)O
Ans: 2

Q: Record request: MIC value, item CC[C@H]1OC(=O)[C@H](C)C(=O)[C@H](C)[C@@H](O[C@@H]2O[C@H](C)C[C@H](N(C)C)[C@H]2O)[C@](C)(OC)C[C@@H](C)C(=O)[C@H](C)[C@@H](OC(=O)NCCNC(=O)c2cccc(C)c2)[C@]1(C)O
Ans: 4

Q: // returns reported MIC for input CC[C@H]1OC(=O)[C@H](C)C(=O)[C@H](C)[C@@H](O[C@@H]2O[C@H](C)C[C@H](N(C)C)[C@H]2O)[C@](C)(OC)C[C@@H](C)C(=O)[C@H](C)[C@@H](OC(=O)NCCNC(=O)c2ccc(Cl)cc2)[C@]1(C)O
Ans: 1

Q: I'd like to know its MIC. The compound in question is CC[C@H]1OC(=O)[C@H](C)[C@@H](O[C@H]2C[C@@](C)(OC)[C@@H](O)[C@H](C)O2)[C@H](C)[C@@H](O[C@@H]2O[C@H](C)C[C@H](N(C)C)[C@H]2O)[C@](C)(O)C[C@@H](C)CN(C)[C@H](C)[C@@H](O)[C@]1(C)O [AZITHROMYCIN]
Ans: 0.03

Q: Quick check: MIC of CC[C@H]1OC(=O)[C@H](C)[C@@H](O[C@H]2C[C@@](C)(OC)[C@@H](O)[C@H](C)O2)[C@H](C)[C@@H](O[C@@H]2O[C@H](C)C[C@H](N(C)C)[C@H]2O)[C@](C)(OC)C[C@@H](C)C(=O)[C@H](C)[C@@H](O)[C@]1(C)O [CLARITHROMYCIN] ?
Ans: 0.03

Q: State the recorded MIC for this entry: CC[C@H]1OC(=O)[C@H](C)C(=O)[C@H](C)[C@@H](O[C@@H]2O[C@H](C)C[C@H](N(C)C)[C@H]2O)[C@](C)(OC)C[C@@H](C)C(=O)[C@H](C)[C@@H](OC(=O)NCCNC(=O)c2ccc(C)cc2)[C@]1(C)O
Ans: 4

Q: What value of MIC has been recorded for this entry: CC[C@H]1OC(=O)[C@H](C)C(=O)[C@H](C)[C@@H](O[C@@H]2O[C@H](C)C[C@H](N(C)C)[C@H]2O)[C@](C)(OC)C[C@@H](C)C(=O)[C@H](C)[C@@H](OC(=O)NCCNC(=O)/C=C/c2ccc(C)cc2)[C@]1(C)O
Ans: 4

This collection of values is drawn from ChEMBL document CHEMBL4052765.
